Tested on: OVCAR-4 ovarian
procedureText: NCI-60 one-dose screen, 48 h (100 = growth as untreated, 0 = no growth, -100 = all killed)
settings: 10 µM unless noted
Method: Growth inhibition of the OVCAR-4 human tumor cell line is measured as a screen for anti-cancer activity. Cells are grown in 96 well plates and exposed to the test compound for 48 hours. Compounds are tested at a single concentration, which is 10^-5 M for most compounds. The reported endpoint is percent growth (GI% or GIPRCNT), where numbers from 0 - 100% represent growth inhibition, and numbers from -100% - 0 represent cell death. For example, a value of 40 represents 60% growth inhibition. […]
Compounds without any hit were thinned out: in the full panel of roughly 83,000, 20% have a hit. The source made the active and inactive calls. The calls were made as follows: active = growth percent below 10; inactive = the rest.
measuredEndpoint: growth

Known results for molecules:
| molecule | growth |
| --- | --- |
| CC1CCC(C(C)(C)[N+](C)(C)C)CC1 (stereo not given) | 98.9% (inactive) |
| C=C1C(=O)C2CCN1CC2 | 101% (inactive) |
| CCOC(=O)CNC(=O)Sc1ccc(C(C)(C)C)cc1 | 89.7% (inactive) |
| Cc1cc2c(C(C)C)c(O)c(O)c(C=Nc3ccccc3[N+](=O)[O-])c2c(O)c1-c1c(C)cc2c(C(C)C)c(O)c(O)c(C=Nc3ccccc3[N+](=O)[O-])c2c1O | 74.4% (inactive) |

# next molecule below
QUERY: I would be grateful if you could share the reported growth for "O=C(CC(CC(=O)c1ccccc1)c1ccccn1)c1ccccc1" .
RESULT: 105% (inactive)
